Target: UniProt P31645
Sequence (P31645 whole entry): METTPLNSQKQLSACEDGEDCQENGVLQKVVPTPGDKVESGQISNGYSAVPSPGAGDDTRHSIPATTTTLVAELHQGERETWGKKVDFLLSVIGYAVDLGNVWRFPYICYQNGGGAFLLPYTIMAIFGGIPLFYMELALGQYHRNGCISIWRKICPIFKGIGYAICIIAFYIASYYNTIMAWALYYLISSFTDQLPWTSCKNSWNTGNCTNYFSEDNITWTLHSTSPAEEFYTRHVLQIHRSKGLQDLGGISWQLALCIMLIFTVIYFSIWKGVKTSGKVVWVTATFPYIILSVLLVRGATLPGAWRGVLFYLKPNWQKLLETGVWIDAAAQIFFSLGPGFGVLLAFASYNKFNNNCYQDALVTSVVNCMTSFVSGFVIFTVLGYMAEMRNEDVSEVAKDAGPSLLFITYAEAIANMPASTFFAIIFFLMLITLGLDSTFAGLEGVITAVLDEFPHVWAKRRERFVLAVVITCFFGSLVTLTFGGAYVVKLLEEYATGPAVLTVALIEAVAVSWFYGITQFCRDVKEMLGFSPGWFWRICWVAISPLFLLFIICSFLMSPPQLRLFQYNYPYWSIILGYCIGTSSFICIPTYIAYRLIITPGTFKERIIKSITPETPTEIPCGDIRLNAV
Conditions: read-out: IC50, hSERT (uptake inhibition, APP+); hSERT-HEK cells, fluorescent substrate APP+, n = 4
Please respond with satisfied when measured IC50 is strictly beneath 60 nM, and with not satisfied in all other cases.

INSERT INTO assay_data (compound, category_label) VALUES
  ('CCOc1ccc2[nH]c3c(c2c1)CCN1CC2CC(CC)C1C3C2 (centres unmarked)', 'not satisfied'),
  ('CC[C@H]1C[C@@H]2C[C@H]3c4[nH]c5ccc(C#N)cc5c4CCN(C2)[C@@H]13', 'satisfied'),
  ('CCC1CC2CC3c4c(c5cc(O)ccc5n4CC)CCN(C2)C13 (centres unmarked)', 'not satisfied'),
  ('CCC1CC2CC3c4oc5ccc(O)cc5c4CCN(C2)C13 (centres unmarked)', 'not satisfied');

###

Molecular target: rat VMAT2 (rVMAT2) (Rattus norvegicus, UniProt Q01827)
Sequence (Q01827 whole entry): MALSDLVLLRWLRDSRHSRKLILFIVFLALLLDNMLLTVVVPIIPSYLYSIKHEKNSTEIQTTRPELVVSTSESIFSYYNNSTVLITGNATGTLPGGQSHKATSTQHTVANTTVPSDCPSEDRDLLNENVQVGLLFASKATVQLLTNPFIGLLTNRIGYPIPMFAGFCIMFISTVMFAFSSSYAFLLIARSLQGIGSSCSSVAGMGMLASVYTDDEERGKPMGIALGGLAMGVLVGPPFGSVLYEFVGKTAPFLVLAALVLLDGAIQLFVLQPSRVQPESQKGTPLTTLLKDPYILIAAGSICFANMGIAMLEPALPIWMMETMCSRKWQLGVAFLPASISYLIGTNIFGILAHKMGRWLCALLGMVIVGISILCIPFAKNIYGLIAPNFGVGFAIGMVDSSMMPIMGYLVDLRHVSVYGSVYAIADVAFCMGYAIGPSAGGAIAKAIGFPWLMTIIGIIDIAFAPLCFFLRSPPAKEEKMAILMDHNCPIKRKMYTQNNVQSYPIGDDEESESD
Assay: [3H]5-HT uptake inhibition in rat brain synaptic vesicular fraction
Type: biochemical
Endpoint name: IC50

INSERT INTO measurements (structure_smiles, endpoint_name, experimental_result) VALUES
  ('CC[C@H]1C[C@@H]2C[C@H]3c4[nH]c5ccccc5c4CCN(C2)[C@@H]13', 'IC50', '> 10 µM');

###

Molecular target: rat VMAT2 (rVMAT2) (Rattus norvegicus)
Test: [3H]5-HT uptake inhibition in rat brain synaptic vesicular fraction
Assay type: biochemical
Conditions: read-out: Uptake Inhibition at VMAT2 IC50, [3H]5-HT (rVMAT2); rat brain synaptic vesicles
pIC50: −log10 of the molar value.
List of pIC50 values.
Endpoint name: pIC50

INSERT INTO results (molecule, system_tested, experimental_result) VALUES
  ('CC[C@H]1C[C@H]2C[C@H]3c4[nH]c5ccc(O)cc5c4CCN(C2)[C@@H]13 [noribogaine]', 'rat VMAT2 (rVMAT2) (Rattus norvegicus)', 5.88),
  ('CCC1CC2CC3c4c(c5cc(O)ccc5n4C)CCN(C2)C13 (stereo not shown) [N-methyl-noribogaine]', 'rat VMAT2 (rVMAT2) (Rattus norvegicus)', 6.62),
  ('CCC1CC2CC3c4c(c5cc(O)ccc5n4CC)CCN(C2)C13 (stereo not shown) [N-ethyl-noribogaine]', 'rat VMAT2 (rVMAT2) (Rattus norvegicus)', 7.27),
  ('CC[C@H]1C[C@@H]2C[C@H]3c4[nH]c5ccc(C#N)cc5c4CCN(C2)[C@@H]13 [5-cyano-ibogamine]', 'rat VMAT2 (rVMAT2) (Rattus norvegicus)', 5.02);

###

Target: mouse VMAT2 (mVMAT2) (Mus musculus)
Sequence (Q8BRU6 whole entry): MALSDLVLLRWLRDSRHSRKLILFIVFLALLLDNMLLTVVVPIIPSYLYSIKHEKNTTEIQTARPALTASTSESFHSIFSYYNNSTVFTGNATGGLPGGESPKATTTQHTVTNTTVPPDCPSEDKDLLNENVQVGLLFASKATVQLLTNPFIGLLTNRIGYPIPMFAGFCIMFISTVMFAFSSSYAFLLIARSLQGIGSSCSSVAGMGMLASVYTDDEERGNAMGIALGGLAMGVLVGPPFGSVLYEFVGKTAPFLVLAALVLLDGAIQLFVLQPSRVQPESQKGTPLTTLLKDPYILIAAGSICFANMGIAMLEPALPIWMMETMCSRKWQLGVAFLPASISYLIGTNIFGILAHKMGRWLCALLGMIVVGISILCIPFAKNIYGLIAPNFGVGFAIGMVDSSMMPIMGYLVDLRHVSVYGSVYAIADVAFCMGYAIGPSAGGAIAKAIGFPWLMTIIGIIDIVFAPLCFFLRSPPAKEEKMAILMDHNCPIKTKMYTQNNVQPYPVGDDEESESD
Assay: FFN200 two-photon imaging of VMAT2 function in acute mouse brain slices
Conditions: read-out: IC50 FFN200 uptake in acute mouse slices; number of puncta per image, dose-response
Endpoint name: IC50 (µM)

INSERT INTO measurements (compound, system_tested, experimental_result) VALUES
  ('CC[C@H]1C[C@H]2C[C@H]3c4[nH]c5ccc(O)cc5c4CCN(C2)[C@@H]13 [noribogaine]', 'mouse VMAT2 (mVMAT2) (Mus musculus)', 0.16);

###

Target: hDAT (Homo sapiens, UniProt Q01959)
Sequence (Q01959 whole entry): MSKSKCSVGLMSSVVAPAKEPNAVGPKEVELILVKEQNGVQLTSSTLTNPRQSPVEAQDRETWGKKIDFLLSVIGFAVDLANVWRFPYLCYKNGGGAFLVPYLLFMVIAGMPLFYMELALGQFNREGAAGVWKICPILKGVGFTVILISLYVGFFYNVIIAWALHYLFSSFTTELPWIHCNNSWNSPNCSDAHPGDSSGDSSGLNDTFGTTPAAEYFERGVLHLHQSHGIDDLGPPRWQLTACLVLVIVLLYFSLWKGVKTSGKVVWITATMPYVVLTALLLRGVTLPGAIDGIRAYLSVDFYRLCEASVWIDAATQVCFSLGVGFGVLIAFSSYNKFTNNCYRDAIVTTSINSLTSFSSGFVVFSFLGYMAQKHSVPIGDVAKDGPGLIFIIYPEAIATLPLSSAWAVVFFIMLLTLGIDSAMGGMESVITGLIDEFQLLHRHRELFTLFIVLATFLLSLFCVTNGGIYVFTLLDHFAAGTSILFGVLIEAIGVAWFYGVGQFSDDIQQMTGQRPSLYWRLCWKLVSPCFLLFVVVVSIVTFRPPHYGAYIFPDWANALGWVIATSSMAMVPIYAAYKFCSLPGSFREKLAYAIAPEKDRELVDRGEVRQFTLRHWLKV
Assay: APP+ fluorescent substrate uptake inhibition in hDAT-HEK cells
Conditions: read-out: IC50, hDAT
pIC50: −log10 of the molar value.
Endpoint name: pIC50

INSERT INTO measurements (structure_smiles, experimental_result) VALUES
  ('CC[C@H]1C[C@H]2C[C@H]3c4[nH]c5ccc(O)cc5c4CCN(C2)[C@@H]13', 5.17);
